- Study system: human alpha-synuclein monomer (human, UniProt P37840 1-140)
- Experimental protocol: SPR (Biacore 8K), IgG captured on anti-human Fc, aSyn monomer injected
pKd: recorded values
Friendly reminder that pKd comes from taking -log10 of the concentration in mol/L.

Binder	Assay endpoint	Value
HC6_LC_k3_13 (antibody, V domains shown) VH: EVQLVESGGGLVQPGGSLRLSCAASGFTFSNAAMYWVRQAPGKGLELVSRIRTKPNNYATYHADSVKGRFTISRDDSKNTLYLQMNSLRAEDTAVYYCTADMATGDYWGQGTLVTVSS VL: EIVMTQSPATLSLSPGERATLSCKASQNINANLDWYQQKPGQAPRPLIYSTNNLKTGIPARFSGSGSGTDFTLTISSLQPEDFAVYYCYQYKSAWTFGQGTKVEIK	pKd	9.77
HC5_LC_k3_2_v1 (antibody, V domains shown) VH: EVQLVESGGGLVQPGGSLRLSCAASGFTFSNAAMYWVRQAPGKGLELLARIRTKPNNYATYHADSVKGRFTISRDDSKNTVYLQMNSLRAEDTAVYYCTADMATGDYWGQGTLVTVSS VL: EIVMTQSPATLSLSPGERATLSCKASQNINKNLDWYQQKPGQAPRPLIYSTNNLKTGIPARFSGSGSGTDFTLTISSLQPEDFAVYYCYQYKSAWTFGQGTKVEIK	pKd	9.77

For the binder HC6_LC_k3_2_v1 (antibody, V domains shown) VH: EVQLVESGGGLVQPGGSLRLSCAASGFTFSNAAMYWVRQAPGKGLELVSRIRTKPNNYATYHADSVKGRFTISRDDSKNTLYLQMNSLRAEDTAVYYCTADMATGDYWGQGTLVTVSS VL: EIVMTQSPATLSLSPGERATLSCKASQNINKNLDWYQQKPGQAPRPLIYSTNNLKTGIPARFSGSGSGTDFTLTISSLQPEDFAVYYCYQYKSAWTFGQGTKVEIK , what pKd is on record? 9.66
